Hey, just so you know, these numbers are from patent US4022834A.

System: human epithelial cells
Assay: Cytotoxic effect on human epithelial cells in vitro
Assay type: cell-based
Conditions: treatment for 5 minutes at 37° C.; Reference: Chlorohexidine=1
Protocol: Cytotoxic effect on human epithelial cells in vitro after treatment for 5 minutes at 37° C. Reference: Chlorohexidine=1.
Answer each item with its documented Cytotoxic effect relative to chlorohexidine.

Problem: Name the recorded Cytotoxic effect relative to chlorohexidine for CCC(C)CC(C)NC(=N)NC(=N)NCCCCCCNC(=N)NC(=N)NC(C)CC(C)CC (stereo not drawn) [Compound 7] .
Result: 1

Problem: I would be grateful if you could share the reported Cytotoxic effect relative to chlorohexidine for CC(C)CCC(C)NC(=N)NC(=N)NCCCCCCNC(=N)NC(=N)NC(C)CCC(C)C.Cl.Cl (stereo not drawn) [Compound 8] .
Result: 1

Problem: What value of Cytotoxic effect relative to chlorohexidine has been recorded for this entry: CCCCCC(C)NC(=N)NC(=N)NCCCCCCNC(=N)NC(=N)NC(C)CCCCC.Cl.Cl (stereo not drawn) [Compound 6]
Result: 1

Problem: Please look up its Cytotoxic effect relative to chlorohexidine: CCCCC(CC)CNC(=N)NC(=N)NCCCCCCNC(=N)NC(=N)NCC(CC)CCCC (stereo not drawn) [Compound 9, reference compound]
Result: 4

Problem: Form field: reported Cytotoxic effect relative to chlorohexidine of N=C(NCCCCCCNC(=N)NC(=N)NC1CC2CCC1C2)NC(=N)NC1CC2CCC1C2 (stereo not drawn) [Compound 5]
Result: 1/8

Problem: What value of Cytotoxic effect relative to chlorohexidine has been reported for the following molecule? N=C(NCCCCCCNC(=N)NC(=N)NCC1CCCCC1)NC(=N)NCC1CCCCC1 [Compound 3]
Result: 1/2

----------
Tested on: Aerobacter aerogenes
Test: Inhibition of growth in aqueous solution and subcultivation in liquid medium, Aerobacter aerogenes
Type: cell-based
Conditions: Reference: Chlorohexidine=1
PROPERTY: Inhibition of growth relative to chlorohexidine
Please respond with just the number, no unit label.

Problem: API: value(readout= Inhibition of growth relative to chlorohexidine, system= Aerobacter aerogenes, query= N=C(NCCCCCCNC(=N)NC(=N)N1CC2CCC(CC2)C1)NC(=N)N1CC2CCC(CC2)C1 )
Result: 1

Problem: API: value(readout=Inhibition of growth relative to chlorohexidine, system=Aerobacter aerogenes) for record N=C(NCCCCCCNC(=N)NC(=N)NC12CC3CC(CC(C3)C1)C2)NC(=N)NC12CC3CC(CC(C3)C1)C2
Result: 8

Problem: State its Inhibition of growth relative to chlorohexidine on Aerobacter aerogenes: CCCCC(CC)CNC(=N)NC(=N)NCCCCCCNC(=N)NC(=N)NCC(CC)CCCC (stereo not drawn) [Compound 9, reference compound]
Result: 2

Problem: API: value(readout= Inhibition of growth relative to chlorohexidine, system= Aerobacter aerogenes, query= N=C(NCCCCCCNC(=N)NC(=N)NCC1CCCCC1)NC(=N)NCC1CCCCC1 )
Result: 8

Problem: Which Inhibition of growth relative to chlorohexidine is reported with Aerobacter aerogenes for this entry: CCC(C)CC(C)NC(=N)NC(=N)NCCCCCCNC(=N)NC(=N)NC(C)CC(C)CC (stereo not drawn) ?
Result: 1

Problem: Any idea what Inhibition of growth relative to chlorohexidine came out for CC(C)CCC(C)NC(=N)NC(=N)NCCCCCCNC(=N)NC(=N)NC(C)CCC(C)C.Cl.Cl (stereo not drawn) on Aerobacter aerogenes?
Result: 1

Problem: Lab note: need Inhibition of growth relative to chlorohexidine for CC(C)CCCC(C)NC(=N)NC(=N)NCCCCCCNC(=N)NC(=N)NC(C)CCCC(C)C (stereo not drawn) on Aerobacter aerogenes, anyone have it?
Result: 16

Problem: # returns recorded Inhibition of growth relative to chlorohexidine (system: Aerobacter aerogenes) for CCCCCC(C)NC(=N)NC(=N)NCCCCCCNC(=N)NC(=N)NC(C)CCCCC.Cl.Cl (stereo not drawn)
Result: 1
